- System: Escherichia coli
- ASSAY_PROCEDURE: Antimicrobial activity against Escherichia coli Ec2 containing pEc1-D plasmid expressing CTX-M-15 TEM-1 OXA-1gene
- Format: functional
For each record, write down the corresponding MIC.
Just the number in µg/mL, nothing appended.

Can you look up MIC on Escherichia coli for C[C@@H](O)[C@H]1C(=O)N2C(C(=O)O)=C(SCCNC=N)C[C@H]12 [IMIPENEM ANHYDROUS] ?
0.5

Notebook entry, Escherichia coli assay: MIC of CC(C)(O/N=C(\C(=O)N[C@@H]1C(=O)N2C(C(=O)[O-])=C(C[n+]3ccccc3)CS[C@H]12)c1csc(N)n1)C(=O)O [CEFTAZIDIME] = ?
1

Give Escherichia coli MIC for C[C@@H](O)[C@H]1C(=O)N2C(C(=O)O)=C(S[C@@H]3CN[C@H](C(=O)Nc4cccc(C(=O)O)c4)C3)[C@H](C)[C@H]12 [ERTAPENEM]
0.05

Given the entry CO/N=C(\C(=O)N[C@@H]1C(=O)N2C(C(=O)O)=C(COC(C)=O)CS[C@H]12)c1csc(N)n1 [CEFOTAXIME] , what MIC was observed with Escherichia coli?
2

Recall the recorded MIC for CO[C@@]1(NC(=O)Cc2cccs2)C(=O)N2C(C(=O)O)=C(COC(N)=O)CS[C@@H]21 [CEFOXITIN] with Escherichia coli and state it.
32
